# measured.on: Fes (UniProt P07332)
# Sequence (P07332 whole entry, looked up): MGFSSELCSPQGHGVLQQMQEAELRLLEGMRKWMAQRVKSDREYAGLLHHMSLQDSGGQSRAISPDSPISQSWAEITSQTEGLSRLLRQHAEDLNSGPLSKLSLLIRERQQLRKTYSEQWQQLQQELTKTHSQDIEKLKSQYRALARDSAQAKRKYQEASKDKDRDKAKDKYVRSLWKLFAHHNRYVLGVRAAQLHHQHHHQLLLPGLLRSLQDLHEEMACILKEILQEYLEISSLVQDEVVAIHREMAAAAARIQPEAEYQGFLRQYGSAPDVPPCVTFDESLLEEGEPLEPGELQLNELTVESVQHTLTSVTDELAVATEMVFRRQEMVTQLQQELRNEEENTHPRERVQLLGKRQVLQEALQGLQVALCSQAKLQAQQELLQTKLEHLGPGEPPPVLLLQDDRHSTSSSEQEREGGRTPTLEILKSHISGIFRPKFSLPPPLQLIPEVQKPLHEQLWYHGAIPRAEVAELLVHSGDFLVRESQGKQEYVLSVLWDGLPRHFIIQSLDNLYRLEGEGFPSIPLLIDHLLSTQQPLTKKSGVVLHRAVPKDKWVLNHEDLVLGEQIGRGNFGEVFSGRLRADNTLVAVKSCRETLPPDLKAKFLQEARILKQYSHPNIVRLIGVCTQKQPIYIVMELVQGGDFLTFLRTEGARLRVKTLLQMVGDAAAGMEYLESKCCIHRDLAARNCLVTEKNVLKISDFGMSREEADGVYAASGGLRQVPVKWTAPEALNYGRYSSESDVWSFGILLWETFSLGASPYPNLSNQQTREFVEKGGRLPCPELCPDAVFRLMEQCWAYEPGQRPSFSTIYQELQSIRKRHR
# protocol.text: phosphorylation enrichment, bacterial display (enrichment ratio); higher = better substrate or ligand; peptides without Tyr show the background;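 also: 11-residue human phosphosite peptides and single-mutation variants displayed on the E. coli surface, counted by deep sequencing, each peptide's frequency after selection divided by its frequency in the unselected input library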;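 also: frequency after pTyr selection over input frequency; kinase dosed for 20-30% of maximal phosphorylation in three min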
observation.type: phosphorylation enrichment
Field format: numeric only.

Identify measured phosphorylation enrichment associated with KEAALYPHLPP [SQSTM1_Y383]
0.796

Identify measured phosphorylation enrichment associated with FKNGDYNEVMK [LCT_Y1638]
0.903

Identify measured phosphorylation enrichment associated with EEGRVYVFHLS [ITGAE_Y549_R552H_YF]
1.25

Identify measured phosphorylation enrichment associated with MSSHHCDFKKF [ZNF445_Y428_Y428C_YF]
0.487

Identify measured phosphorylation enrichment associated with ASQEEYSAMRD [KRAS_Y64_G60S]
0.946

Identify measured phosphorylation enrichment associated with CTTIHCNFMCN [TP53_Y234_Y234C_YF]
0.869

Identify measured phosphorylation enrichment associated with HFGNNYRDVLQ [MACC1_Y803_YF]
1.72

Identify measured phosphorylation enrichment associated with WIPIQDPIISE [NOG_Y222_Y222D]
1.24

Identify measured phosphorylation enrichment associated with SEEVTYATLTF [CLEC12B_Y7]
1.53

Identify measured phosphorylation enrichment associated with RLAKRYLIWEC [SCN5A_Y694_Q692K]
1.06

Identify measured phosphorylation enrichment associated with LQIPMYEVQWK [KIT_Y553_K550I]
2.04

Identify measured phosphorylation enrichment associated with NREGVYRVFAP [TGFBI_Y537_T538R]
0.556

Identify measured phosphorylation enrichment associated with EATKGHLDDPT [G6PD_Y322_Y322H]
1.04

Identify measured phosphorylation enrichment associated with KKRSSYGNSSD [SELENOK_Y52_R50S]
0.508

Identify measured phosphorylation enrichment associated with KIIRWYVSSEG [ANK2_Y3907_R3906W]
1.34

Identify measured phosphorylation enrichment associated with RHPFFFAPELL [ALB_Y174_Y174F_YF]
1.72

Identify measured phosphorylation enrichment associated with EEKSCYILHSS [PATJ_Y783_E780K]
1.22

Identify measured phosphorylation enrichment associated with NCLREYVAGRF [CRB1_Y711]
0.891

Identify measured phosphorylation enrichment associated with TESALYGCTVL [KIAA1804_Y724]
1.27

Identify measured phosphorylation enrichment associated with DKGTLYIAEQI [PLBD1_Y375_V377A]
0.887

Identify measured phosphorylation enrichment associated with FSNPAYYVLEG [INPPL1_Y986_N982S]
0.848

Identify measured phosphorylation enrichment associated with HYPDVYAWEQL [ALX3_Y181_R183W]
1.31

Identify measured phosphorylation enrichment associated with SLIEHYEPSET [PLCD1_Y258_R257H]
0.977

Identify measured phosphorylation enrichment associated with RWHEGYRQTPK [CD44_Y412]
0.678

Identify measured phosphorylation enrichment associated with RRGLLYDSDEE [MCM2_Y137]
1.13

Identify measured phosphorylation enrichment associated with AEEEIYGEFEA [Src_opt_1995]
1.49

Identify measured phosphorylation enrichment associated with SWDKRYCEAGC [ITGA2B_Y197_F202C]
0.887

Identify measured phosphorylation enrichment associated with PFQGAYLEINK [MYO1B_Y967]
1.09

Identify measured phosphorylation enrichment associated with NHFKIYNLFAE [PTEN_Y68_C71Y_YF]
1.33

Identify measured phosphorylation enrichment associated with DLQDEYDFKRK [STAT1_Y170_C174R]
1.16

Identify measured phosphorylation enrichment associated with IEENGYNTFAS [FGF10_Y161_YF]
1.07

Identify measured phosphorylation enrichment associated with VTAALYGRLFE [BTD_Y536_YF]
0.734

Identify measured phosphorylation enrichment associated with LTECGYSFTTT [ACTB_Y198_R196C]
1.15

Identify measured phosphorylation enrichment associated with FQCLRYIKQLG [SAMHD1_Y146_R143C]
1.25

Identify measured phosphorylation enrichment associated with DTFDPYLDVAL [USP36_Y268_YF]
1.24

Identify measured phosphorylation enrichment associated with ISIFHYAKGQP [MPZ_Y82]
1.03

Identify measured phosphorylation enrichment associated with MALDIYRASYY [ALK_Y1278_R1275L]
0.911

Identify measured phosphorylation enrichment associated with DKTGEYPVPLT [ACADM_Y73_I78T]
0.902

Identify measured phosphorylation enrichment associated with LQLLGYRPVFS [CHST6_Y358_YF]
1.42

Identify measured phosphorylation enrichment associated with AFPVSYSSSGA [RET_Y687]
0.541

Identify measured phosphorylation enrichment associated with PAIERYVVVCK [RHO_Y136_L131P]
1.41

Identify measured phosphorylation enrichment associated with REQREYLEQLN [CCDC88B_Y1277_D1279E]
0.939

Identify measured phosphorylation enrichment associated with DLGIQYKALKP [CTNNA1_Y177]
0.853

Identify measured phosphorylation enrichment associated with PRSRSYFSTSI [REPS2_Y462_S463F]
0.791

Identify measured phosphorylation enrichment associated with QPDLLYDHIQP [TRRAP_Y862_F860L]
2.01

Identify measured phosphorylation enrichment associated with RGMVMYTSKDR [ZG16B_Y136]
0.857

Identify measured phosphorylation enrichment associated with LLSVAYKNVVG [YWHAG_Y49]
0.935

Identify measured phosphorylation enrichment associated with NELTYYCYKKD [CD59_Y87_C89Y]
1.51

Identify measured phosphorylation enrichment associated with AHAGEYGAGAL [HBA1_Y25_E28G]
0.539

Identify measured phosphorylation enrichment associated with SVETPYVSVTF [NDRG2_Y47_G48V]
1.19

Identify measured phosphorylation enrichment associated with FFRKFCNKSED [RYR1_Y4864_Y4864C]
1.04

Identify measured phosphorylation enrichment associated with GCRSKYVRLWG [KCNQ1_Y184_G186R]
0.696

Identify measured phosphorylation enrichment associated with HNLYSYPTKYE [MYO3A_Y1396_H1400Y]
0.958

Identify measured phosphorylation enrichment associated with DSGRDYVSQFE [APOA1_Y53]
0.922

Identify measured phosphorylation enrichment associated with HELYVYKSDEN [DOCK3_Y548_C550S]
2.14

Identify measured phosphorylation enrichment associated with LKEIRYPPYTD [ALDH3B2_Y362_H361R]
1.06

Identify measured phosphorylation enrichment associated with AVAFLYYKSIG [ADGRL4_Y301_V300L]
1.42

====

# measured.on: MERTK (UniProt Q12866)
# Sequence (Q12866 whole entry, looked up): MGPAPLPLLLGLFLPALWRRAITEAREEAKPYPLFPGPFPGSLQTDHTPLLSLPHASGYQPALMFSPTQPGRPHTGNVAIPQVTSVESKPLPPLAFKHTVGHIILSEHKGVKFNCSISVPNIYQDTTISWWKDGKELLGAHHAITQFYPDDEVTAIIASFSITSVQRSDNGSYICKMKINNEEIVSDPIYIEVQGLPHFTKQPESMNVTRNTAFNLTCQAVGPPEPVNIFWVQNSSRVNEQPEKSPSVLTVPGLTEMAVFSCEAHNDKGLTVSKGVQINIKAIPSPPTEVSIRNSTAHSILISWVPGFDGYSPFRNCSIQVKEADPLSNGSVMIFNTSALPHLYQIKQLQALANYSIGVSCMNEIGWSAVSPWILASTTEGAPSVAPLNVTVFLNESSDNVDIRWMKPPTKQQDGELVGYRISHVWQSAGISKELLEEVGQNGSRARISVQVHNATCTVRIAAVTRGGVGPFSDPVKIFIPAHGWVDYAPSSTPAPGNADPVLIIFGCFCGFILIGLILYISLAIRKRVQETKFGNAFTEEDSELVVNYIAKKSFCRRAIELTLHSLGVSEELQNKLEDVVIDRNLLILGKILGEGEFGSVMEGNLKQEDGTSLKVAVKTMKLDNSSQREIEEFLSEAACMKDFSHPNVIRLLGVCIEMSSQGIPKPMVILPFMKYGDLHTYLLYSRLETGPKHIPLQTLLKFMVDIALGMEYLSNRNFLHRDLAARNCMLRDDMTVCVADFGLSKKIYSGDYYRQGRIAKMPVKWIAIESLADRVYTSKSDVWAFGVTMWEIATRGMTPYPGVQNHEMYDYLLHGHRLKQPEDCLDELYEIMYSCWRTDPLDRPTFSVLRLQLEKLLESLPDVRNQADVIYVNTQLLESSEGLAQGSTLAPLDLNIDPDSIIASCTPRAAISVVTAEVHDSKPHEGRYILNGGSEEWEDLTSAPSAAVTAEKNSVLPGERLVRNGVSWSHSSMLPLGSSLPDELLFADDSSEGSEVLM
# protocol.text: phosphorylation enrichment, bacterial display (enrichment ratio); higher = better substrate or ligand; peptides without Tyr show the background
So I've got a bunch of sequences here, and I need their phosphorylation enrichment values.
Field format: numeric only.

GET phosphorylation enrichment | system: MERTK (UniProt Q12866) | item: RLNAIYQNNLT [GSR_Y158]
0.414

GET phosphorylation enrichment | system: MERTK (UniProt Q12866) | item: PFRQWYESHFA [RPS8_Y113_YF]
0.906

GET phosphorylation enrichment | system: MERTK (UniProt Q12866) | item: FDSPFYRDSLP [TSC1_Y508]
0.409

GET phosphorylation enrichment | system: MERTK (UniProt Q12866) | item: IVFVICDEVVK [SLC25A1_Y297_Y297C]
0.333

GET phosphorylation enrichment | system: MERTK (UniProt Q12866) | item: EVRTQYEEIAQ [KRT76_Y361_A359T]
0.395

GET phosphorylation enrichment | system: MERTK (UniProt Q12866) | item: WKKKIYEESST [MOCS2_Y170_E168K]
0.432

GET phosphorylation enrichment | system: MERTK (UniProt Q12866) | item: IKAGAYDFPSL [CAMK2A_Y230_P235L]
5.66
